Assay method text: Electrochemically observed pKa (pKred) of aziridines
Format: physicochemical
Study conditions: read-out: pKred
Assay endpoint: pKa
Reply briefly: the number, and no unit.

Consider the reported pKa for these molecules:
Molecule	pKa
CCC1=C(N2CC2)C(=O)C(C)=C(N2CC2)C1=O	8.7
CC1=C(N2CC2)C(=O)C(Br)=C(N2CC2)C1=O	8.7
CC1=C(N2CC2C)C(=O)C(Br)=C(N2CC2C)C1=O (stereo not drawn)	9.2
CC1=C(N2CC2)C(=O)C(Cl)=C(N2CC2)C1=O	8.5

State the recorded pKa for this entry: OCC/N=C1C(O)=C(N2CC2)/C(=N\CCO)C(O)=C/1N1CC1
9.5

Lookup C/N=C1C(O)=C(N2CC2C)/C(=N\C)C(O)=C\1N1CC1C (stereo not drawn)
9.3

And what about the molecule CC1=C(N2CC2)C(=O)C(CCOC(N)=O)=C(N2CC2)C1=O ?
8.9

Same read-out for O=C1C=C(N2CC2)C(=O)C=C1N1CC1 ?
7.5

Repeat with CC1CN1C1=C(F)C(=O)C(N2CC2C)=C(N2CC2C)C1=O (stereo not drawn)
8.2

Next up: NC(=O)OCCC1=C(N2CC2)C(=O)C(Br)=C(N2CC2)C1=O
8.9

Try this molecule next: O=C1C(F)=C(N2CC2)C(=O)C(F)=C1N1CC1
7.2

Also check O=C1C=C(N2CC2)C(=O)C(N2CC2)=C1N1CC1
8

Quick one: CN(CCO)C1=C(N2CC2)C(=O)C(N(C)CCO)=C(N2CC2)C1=O
9.7

Also O=C1C(N2CC2)=C(N2CC2)C(=O)C(N2CC2)=C1N1CC1 , if possible.
7.7

Try this molecule next: CCC1=C(N2CC2)C(=O)C(Br)=C(N2CC2)C1=O
8.8

And CC1CN1C1=CC(=O)C(N2CC2C)=CC1=O (stereo not drawn) ?
8.1

Now try O=C1C(N2CCCC2)=C(N2CC2)C(=O)C(N2CCCC2)=C1N1CC1 .
10.6

Repeat for the following molecule: CCOC(=O)NC1=C(N2CC2C)C(=O)C(NC(=O)OCC)=C(N2CC2C)C1=O (stereo not drawn)
8.5

Now give it for O=C1C(F)=C(N2CC2)C(=O)C(N2CC2)=C1N1CC1 too.
7.8

// query: CC1=C(N2CC2C)C(=O)C(CCOC(N)=O)=C(N2CC2C)C1=O (stereo not drawn)
9.7

Next up: COC1=C(N2CC2)C(=O)C(OC)=C(N2CC2)C1=O
8

====

Assay method text: log 1/LD50 for LD50 (mmol/kg)
Format: ADME
Reported Log 1/LD50 (mM kg-1) is given for each of the following compounds.
I'd appreciate a reply containing only the number, no unit.

Here are 5 compounds together with their reported answers.
Compound	Log 1/LD50 (mM kg-1)
O=C1C=C(N2CC2)C(=O)C(N2CC2)=C1N1CC1	2.66
CC1=C(N2CC2)C(=O)C(CCO)=C(N2CC2)C1=O	1.39
COC(COC(N)=O)C1=C(N2CC2)C(=O)C(C)=C(N2CC2)C1=O (configuration not stated)	1.73
O=C1C(F)=C(N2CC2)C(=O)C(N2CC2)=C1N1CC1	1.62
CC1=C(N2CC2C)C(=O)C(C)=C(N2CC2C)C1=O (configuration not stated)	1.4

Field request: Log 1/LD50 (mM kg-1) | item: CC1=C(N2CC2)C(=O)C(Br)=C(N2CC2)C1=O
1.44

Next up: CCOC(=O)NC1=C(N2CC2C)C(=O)C(NC(=O)OCC)=C(N2CC2C)C1=O (configuration not stated)
0.69

====

Assay method text: E1/2 for the half-wave potential at pH=7.0 in V57
Assay type: ADME
Use True when the recorded E 1/2 is no lower than -0.2; use False when it is lower.

Look over these answered cases.
Compound	Class label
CC1=C(C)C(=O)C(N2CC=CC2)=CC1=O	False
COC1=C(N2CC2)C(=O)C(OC)=C(N2CC2)C1=O	True
CC1CN1C1=C(N2CCCC2)C(=O)C(N2CC2C)=C(N2CCCC2)C1=O (stereo unspecified)	False
CCOC(=O)NC1=C(N2CC2C)C(=O)C(NC(=O)OCC)=C(N2CC2C)C1=O (stereo unspecified)	True
O=C1C(N2CCCC2)=C(N2CC2)C(=O)C(N2CCCC2)=C1N1CC1	False
OCC/N=C1C(O)=C(N2CC2)/C(=N\CCO)C(O)=C/1N1CC1	False
CC1CN1C1=CC(=O)C(N2CC2C)=CC1=O (stereo unspecified)	True
CN(CCO)C1=C(N2CC2)C(=O)C(N(C)CCO)=C(N2CC2)C1=O	False

Is reported E 1/2 greater than or equal to -0.2 here: O=C1C=C(N2CC2)C(=O)C(N2CC2)=C1N1CC1
True

Repeat with CC1=C(N2CC2C)C(=O)C(CCOC(N)=O)=C(N2CC2C)C1=O (stereo unspecified)
False

What do we get for O=C1C(F)=C(N2CC2)C(=O)C(F)=C1N1CC1 ?
True

Item: CCC1=C(N2CC2)C(=O)C(Br)=C(N2CC2)C1=O
False

Now the same for CC1=C(N2CC2C)C(=O)C(C)=C(N2CC2C)C1=O (stereo unspecified)
True

And then C/N=C1C(O)=C(N2CC2)/C(=N\C)C(O)=C\1N1CC1 , what is it?
False

One more compound: O=C1C=C(N2CC2)C(=O)C=C1N1CC1
True

====

Assay method text: E1/2 for the half-wave potential at pH=7.0 in V57
Format: ADME
E 1/2 by entry:
Just the number, please, no unit after it.

Compound	E 1/2
CC1CN1C1=C(F)C(=O)C(N2CC2C)=C(F)C1=O (stereo unspecified)	-0.093

Dear colleague, I am looking for the recorded E 1/2 of the following compound: CC1=C(N2CC2)C(=O)C(Cl)=C(N2CC2)C1=O
-0.197

Now give it for CC1=C(C)C(=O)C(N2CCCC2)=CC1=O too.
-0.303

Could you do the same for O=C1C=C(N2CCCC2)C(=O)C=C1N1CCCC1 , please?
-0.439

Likewise for CC1=C(N2CC2)C(=O)C(CCOC(N)=O)=C(N2CC2)C1=O ?
-0.213

Also check C/N=C1C(O)=C(N2CC2C)/C(=N\C)C(O)=C\1N1CC1C (stereo unspecified)
-0.4

====

Test system: Nucleic Acid
Assay method text: DNA cross link ratio at pH=5.0 and 50 umol/L compound
Format: functional
Assay endpoint: DNA cross-link ratio
Answer using only a numeral; do not append any unit.

Molecule	Target or test system	DNA cross-link ratio
CC1=C(N2CC2C)C(=O)C(CCOC(N)=O)=C(N2CC2C)C1=O (centres undefined)	Nucleic Acid	0.13
CCC1=C(N2CC2)C(=O)C(Br)=C(N2CC2)C1=O	Nucleic Acid	0.15
O=C1C(F)=C(N2CC2)C(=O)C(N2CC2)=C1N1CC1	Nucleic Acid	0.17
COC(COC(N)=O)C1=C(N2CC2)C(=O)C(C)=C(N2CC2)C1=O (centres undefined)	Nucleic Acid	0.26
CC1=C(N2CC2)C(=O)C(CCOC(N)=O)=C(N2CC2)C1=O	Nucleic Acid	0.27

Name the recorded DNA cross-link ratio for CCOC(=O)NC1=C(N2CC2)C(=O)C(NC(=O)OCC)=C(N2CC2)C1=O .
0.14

Now consider CCC1=C(N2CC2)C(=O)C(C)=C(N2CC2)C1=O .
0.23

Note, next up: CCOC(=O)NC1=C(N2CC2C)C(=O)C(NC(=O)OCC)=C(N2CC2C)C1=O (centres undefined)
0.02

Now this one: O=C1C=C(N2CC2)C(=O)C=C1N1CC1
0.29

====

Assay method text: HPLC capacity factor (logK)
Format: ADME
Class field: derived from Log K; ranges Low = under 0.2, Medium = from 0.2 up to 0.6, High = 0.6 and over

Category of CC1=C(C)C(=O)C(C)=C(C)C1=O :
High

Moving on to O=C1C=C(Cl)C(=O)c2ccccc21
High

Item: O=C1C=C(N2CC=CC2)C(=O)c2ccccc21
High

Can you handle C/N=C1C=C(O)/C(=N/C)C=C/1O next?
Low

====

Assay method text: log KGSH for the rate k of glutathione (GSH) consumption in 1/s
Format: functional
# if value of Log k GSH (s-1) reaches -4, tag True; if it stays below, tag False

Compound	Class label
CCC1=C(N2CC2)C(=O)C(C)=C(N2CC2)C1=O	False
O=C1C=C(N2CC2)C(=O)C(N2CC2)=C1N1CC1	True
COC(COC(N)=O)C1=C(N2CC2)C(=O)C(C)=C(N2CC2)C1=O (stereo not given)	False
O=C1C(F)=C(N2CC2)C(=O)C(F)=C1N1CC1	True

Please tell me: is the compound O=C1C=C(N2CC2)C(=O)C=C1N1CC1 at or over -4 in terms of Log k GSH (s-1)?
True

Likewise for O=C1C(F)=C(N2CC2)C(=O)C(N2CC2)=C1N1CC1 ?
True

Note, next up: CCOC(=O)NC1=C(N2CC2)C(=O)C(NC(=O)OCC)=C(N2CC2)C1=O
False

Please do the same for CCC1=C(N2CC2)C(=O)C(Br)=C(N2CC2)C1=O as well.
True

Further, for NC(=O)OCCC1=C(N2CC2)C(=O)C(Br)=C(N2CC2)C1=O ?
True

Now this one: CC1=C(N2CC2)C(=O)C(CCOC(N)=O)=C(N2CC2)C1=O
False
